compounds and their reported inhibition
- measurement.target: Galanin receptor type 2 (Homo sapiens)
- assay.details: blockers of human galanin receptor 2 – cell-based, primary screen (AID 828);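 further: cells stimulated with galanin 1-16 at roughly its EC80; 0% = agonist challenge control and 100% = basal control without agonist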
- assay.conditions: GALR2-expressing cells, antagonist mode; at 4 µM; hits give high values
Hit rate of the full screen: of about 140,000 compounds, about 550 (0.39%) were called active. The list comes from a sample in which actives are over-represented; it also holds close analogues and randomly drawn compounds.
measured.parameter: inhibition (%)

CCOC(=O)c1c(NC(=S)NC(=O)/C=C/c2cccs2)sc(C)c1C    -8.3
COc1ccccc1C(=O)N1CC2(C)CC1CC(C)(C)C2 (stereo not given)    1.39
CCOC(=O)NC(=O)CSc1nnc(SCCC(=O)O)s1    -4.2
O=[N+]([O-])c1ccccc1SNc1ccccn1    0.95
O=C(CSc1nc2ccc([N+](=O)[O-])cc2[nH]1)c1ccc(Cl)cc1    5.51

---

molecules and their reported inhibition
- measurement.target: Galanin receptor type 2 (Homo sapiens) (UniProt O43603)
- Sequence (O43603 whole entry, looked up): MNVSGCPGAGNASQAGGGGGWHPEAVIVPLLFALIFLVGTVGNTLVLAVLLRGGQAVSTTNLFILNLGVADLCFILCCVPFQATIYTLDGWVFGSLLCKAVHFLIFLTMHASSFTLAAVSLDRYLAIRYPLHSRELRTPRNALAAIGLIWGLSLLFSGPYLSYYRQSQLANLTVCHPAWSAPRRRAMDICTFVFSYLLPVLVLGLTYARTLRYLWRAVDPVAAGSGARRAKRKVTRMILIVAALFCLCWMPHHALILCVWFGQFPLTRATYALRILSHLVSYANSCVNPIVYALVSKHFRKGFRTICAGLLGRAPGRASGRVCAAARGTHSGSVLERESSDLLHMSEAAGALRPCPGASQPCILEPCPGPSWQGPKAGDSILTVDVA
- assay.details: blockers of human galanin receptor 2 – cell-based, primary screen (AID 828);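 further: cells stimulated with galanin 1-16 at roughly its EC80; 0% = agonist challenge control and 100% = basal control without agonist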
- assay.conditions: GALR2-expressing cells, antagonist mode; at 4 µM; hits give high values
Among all 140,000 compounds or so, about 550 (0.39%) were called active. This excerpt belongs to a sample that is enriched for actives.
measured.parameter: inhibition (%)

Cc1nc2ccccc2nc(C)c1=NOCc1ccc(Cl)cc1Cl    10.4
CC(=O)COc1ccc2c(-c3ccccc3)cc(=O)oc2c1    -10.7
O=C(CNC(=O)c1ccc(-c2ccccc2)cc1)OCc1ccc(Cl)cc1    9.65
COc1ccc(/C=C/C(=O)Nc2ccc(C34CC5CC(CC(O)(C5)C3)C4)cc2)cc1OC    27.3
COC(=O)[C@H]1Cc2cnoc2C[C@]1(C)C(=O)O    13.5
O=C(N/N=C/c1ccccn1)C12CC3CC(CC(C3)C1)C2    -0.89
CCc1cccc(C)c1NC(=O)COC(=O)Cc1ccsc1    5.66
COc1ccc(NC(=O)c2nc(-n3nc(C)cc3C)ccc2Cl)cc1Cl    -4.22
CNC(=O)/C(C#N)=C/c1c(F)cccc1Cl    20.6
CCCC/C(C)=N/NC(=O)NC1CCCCC1    1.57
Cc1ccc(-c2nc(-c3cccnc3)sc2CC(=O)Nc2ccc(C)c(Cl)c2)cc1    8.6
CC1CCCN(S(=O)(=O)c2ccc(N(C(=O)c3cnccn3)C(C(=O)NC3CCCCC3)c3cccs3)cc2)C1 (stereo not drawn)    8.87
CCc1ccc2c(c1)C1(NN=C(c3ccccc3)S1)C(=O)N2 (stereo not drawn)    28.2
COc1ccc(-c2nn(C)c(=O)c3ccccc23)cc1NC(=O)COc1ccccc1    2.22
Nc1nc(CC(=O)CSc2ccc(Cl)cc2)nc(Nc2ccc(F)cc2)n1    5.35
O=C(Nn1c(-c2ccccc2)nc2ccccc2c1=O)c1ccc([N+](=O)[O-])cc1    -0.78
O=C(CNC(=O)OCc1ccccc1)Oc1cc2oc(=O)cc(-c3ccccc3)c2cc1Cl    31.1
CCOc1ccc(S(=O)(=O)N(CC(=O)NCC(F)(F)F)Cc2ccco2)cc1    -7
C=CCNC(=O)/C(=C\c1cccc([N+](=O)[O-])c1)NC(=O)c1ccccc1    3.63
O=C(NNC(=S)Nc1ccc(Br)cc1Cl)c1ccco1    1.63
Cc1ccc(S(=O)(=O)c2ccc(Oc3ccccc3)cc2)cc1    -10.2
Cc1nn(Cc2ccc(Cl)cc2)c(Cl)c1/C=N/NC(=O)c1cccnc1    10.9
Cc1ccc(NC(=O)Cn2nc(C)c3ccccc3c2=O)c(C)c1    8.82
COc1ccc(NC(=O)COC(=O)c2ccc(NS(=O)(=O)/C=C/c3ccccc3)cc2)cc1    9.83
Cc1ccc(S(=O)(=O)/N=S(\C)C(C)C)cc1 (stereo not drawn)    0.24
Cc1nn(-c2ccccc2)c(-n2cccc2)c1C(=O)O    8.6
CCOC(=O)C1=C(C)NC(=S)NC1c1cccs1 (stereo not drawn)    -4.54
Cc1ccc(C(=O)NC(=S)Nc2ccc3[nH]c(=O)[nH]c3c2)cc1C    -6.84
O=[N+]([O-])c1ccc(N2CCN(S(=O)(=O)c3ccccc3)CC2)cc1N1CCc2ccccc2C1    1.38
Cc1ccc(NC(=S)NC(=O)/C=C/c2ccc(Cl)cc2)cc1    -8.1
Cc1cccc(N2CCN(C(=O)c3ccccc3NC(=O)C3CCCCC3C(=O)O)CC2)c1 (stereo not drawn)    0.78
Cc1cc(C)c[n+](-c2nc3ccccc3nc2[N-]S(=O)(=O)c2cccs2)c1    -5.36
O=C1Nc2ccccc2C12Nc1ccccc1S2 (stereo not drawn)    6.08
CC1=C/C(=N\OS(=O)(=O)c2ccccc2)C=CC1=O    53.5
O=C(/C=C\c1cn(-c2ccccc2)nc1-c1cccs1)N1CCOCC1    13.8
Nc1nc(SCC(=O)NCCN2CCOCC2)nc2sc3c(c12)CCC3    15.2
Cc1cc(Oc2ccc(Cl)cc2)nc(SCC(=O)c2ccccc2)n1    -1.42
O=C(COc1ccccc1F)NNC(=O)c1ccc(N2CCCCC2)c([N+](=O)[O-])c1    -5.34

---

molecules and their reported inhibition
- measurement.target: Galanin receptor type 2 (Homo sapiens)
- assay.details: blockers of human galanin receptor 2 – cell-based, primary screen (AID 828);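 further: cells stimulated with galanin 1-16 at roughly its EC80; 0% = agonist challenge control and 100% = basal control without agonist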
- assay.conditions: GALR2-expressing cells, antagonist mode; at 4 µM; hits give high values
Among all 140,000 compounds or so, about 550 (0.39%) were called active. The list comes from a sample in which actives are over-represented; it also holds close analogues and randomly drawn compounds.
measured.parameter: inhibition (%)

CCN1CCCC1CNc1ncnc2c1[nH]c1ccc(F)cc12 (stereo unspecified)    13.1
CC(C)OCCCNc1ncnc2c1[nH]c1ccc(F)cc12    35.1
Fc1ccc2[nH]c3c(N4CCSCC4)ncnc3c2c1    22.8
CC(NC(=S)Nc1ccc(S(N)(=O)=O)cc1)c1ccc2c(c1)OCO2 (stereo unspecified)    4.43
Cc1ccc(NC(=O)NC(=O)N(C2CCCCC2)S(=O)(=O)c2ccccc2)cc1    1.91
Clc1ccc(-c2nnc(SCc3nc4ccccc4s3)o2)cc1    12
CCn1c(=O)cc(SCC(=O)NCCC2=CCCCC2)c2ccccc21    -16
Cc1ccc(CC2S/C(=C(/C#N)C(=O)N3CCOCC3)N(c3ccccc3)C2=O)cc1 (stereo unspecified)    -9.98
C=CCNC(=O)COC(=O)c1ccccc1C(=O)N(C)C1CCCCC1    -14.8
CC(=O)Nc1cc(C(=O)O)ccc1S(=O)(=O)c1ccc(Cl)cc1    4.42
Fc1ccc2[nH]c3c(N4CCN(Cc5ccc6c(c5)OCO6)CC4)ncnc3c2c1    44.8
CC1CCc2sc(C(=O)N/N=C/C3CCCCC3)cc2C1 (stereo unspecified)    -7.82
c1ccc(-c2nnc(SCc3nc4ccccc4[nH]3)o2)cc1    27.2
O=S(=O)(/N=C(/Nc1ccccc1)c1ccccc1)c1cccs1    -10.3
CCCc1nc2c([nH]1)C(c1cccnc1)C(C#N)=C(N)O2 (stereo unspecified)    1.63
O=C(COC(=O)C1CC2C=CC1C2)Nc1ccccc1 (stereo unspecified)    -0.08
Clc1ccccc1SCc1nc2ccccc2[nH]1    7.26
COc1ccccc1-c1nnc(NC(=O)c2cccc(N3C(=O)CCC3=O)c2)o1    -8.68
O=C(Nc1ccccc1)c1nnsc1S(=O)(=O)c1ccc(Cl)cc1    42.4
CN(C)CCNC(CC(=O)Nc1ccc(Cl)c(Cl)c1)C(=O)O (stereo unspecified)    -5.57
Cn1c(-c2ccco2)nc2cc3ccccc3cc21    29.7
CC(c1cccnc1)N(CCN(C)C)C(=O)Nc1ccc(Cl)c(Cl)c1 (stereo unspecified)    29.6
Cc1cc(C)nc(SC2CCCCC2NS(=O)(=O)c2ccc(Cl)cc2)n1 (stereo unspecified)    -14.2
COC(=O)Cc1ccc(N(Cc2ccccc2F)S(=O)(=O)c2ccc(Br)cc2)cc1    -3.96
Cc1cccc(-n2c(C)cc(/C=N/NC(N)=S)c2C)c1    -7.75
C/C(CC1CC(C)(C)OC1=O)=N/Nc1nc(-c2ccccc2)cs1 (stereo unspecified)    7.6
COc1cccc(-c2ccc(C#N)c(SCC(=O)NCCc3ccc(Cl)cc3)n2)c1    6.63
CC(C)(C)c1ccc(C(=O)CSc2ncn[nH]2)cc1    4.68
CC(=O)Nc1ccc(S(=O)(=O)Nc2nc(-c3ccc(C(C)(C)C)cc3)cs2)cc1    -2.4
O=C1CCCN1CCCNc1ncnc2c1[nH]c1ccccc12    22.8
O=C(CN1CCc2ccccc21)NC(c1ccccc1)c1ccccc1    -11.2
